Below, each entry is listed alongside its reported z-score.
# METHOD SUMMARY: adipocyte viability effects, profiling panel, cell-based, 3T3-L1 adipocytes, calcein-AM fluorescence, 48 h, basal (AID 1163); further: test concentration not given here
# DETAILS: 3T3-L1 adipocytes viability, higher = more signal

Take a look at these entries with their results.
# COMPOUND, z-score
data = [
    ("COc1ccc([Si](C)(C)[C@@H]2[C@@H](CCO)O[C@]3(C(=O)N(Cc4ccc(N5C(=O)COc6ccccc65)cc4)c4ccccc43)[C@H]2C)cc1", -0.0973),
    ("C=CCNC(=O)[C@@H]1[C@H]2C(=O)O[C@H](c3ccccc3)[C@H](c3ccccc3)N2[C@H](c2ccc(OCCO)cc2)[C@@]12C(=O)Nc1ccc(C#Cc3ccc(OC)cc3)cc12", 1.82),
    ("CCCCCC1=C2CNC(CCC)(C(=O)OC)C=C2C(C)C1=O (configuration not stated)", -0.388),
    ("O=C1NC(=O)C2C1C=CC(C(O)c1cccc3ccccc13)N2Nc1ccccn1 (configuration not stated)", -0.608),
    ("Cc1ccc(S[C@]2(C(=O)NCCN3CCOCC3)CC(=O)N(Cc3ccccc3Cl)[C@@H]2c2ccc(CO)cc2)cc1", 1.03),
    ("COc1ccc([Si](C)(C)[C@@H]2[C@@H](CC(=O)N3Cc4ccccc4C[C@H]3CO)O[C@]3(C(=O)N(C)c4c(Br)cc(C)cc43)[C@H]2C)cc1", 0.181),
]

For the compound O=C1c2ccccc2[C@](Cc2ccccc2I)(C(=O)NC2CC2)[C@H](c2ccc(CO)cc2)N1Cc1ccccc1 , what z-score is on record? -0.241

For the compound CC(C)(C)OC(=O)CC[C@]1(C(=O)O)N=C(c2ccc(OCCCO)cc2)O[C@H]1c1ccccc1N=[N+]=[N-] , what z-score is on record? -0.598

For the compound CCCCC=C[C@@H](NC(=O)Oc1cccc(C(F)(F)F)c1)c1ccccc1 , what z-score is on record? 0.26

For the compound COCCOC(=O)N1C(=O)[C@@]2(c3cc(C#CCNC(N)=O)ccc31)[C@H](C(=O)NC[C@H](O)c1ccccc1)[C@H]1C(=O)O[C@H](c3ccccc3)[C@H](c3ccccc3)N1[C@@H]2c1ccccc1OCCO , what z-score is on record? 0.504

For the compound C=C[C@H](COC(C)=O)N(C(=O)OC(C)(C)C)S(=O)(=O)c1ccc(Br)cc1 , what z-score is on record? 0.49

For the compound CCN(CC)c1ccc(N2CC=CC34O[C@@H]5/C=C\CCCOC(=O)C5[C@H]3C(=O)N(CCO)[C@@H]4C2=O)cc1 (some centres not stated) , what z-score is on record? 0.327

###

# METHOD SUMMARY: RPMI8226 myeloma cell viability, profiling panel, resazurin fluorescence, basal, 24 h, PK04 Diversity Set (AID 1180);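 further: RPMI8826 multiple myeloma cell line at 5000 cells per well; test concentration not given here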
# DETAILS: higher = more signal
Everything with z-score lower than -1 is not met; everything else, including exactly -1, is met.

Below, 5 molecules whose answers are already recorded.
# MOLECULE, CLASS LABEL
rows = [
    ("CCOC(=O)C1=CCC(c2ccc(C)cc2)N(S(=O)(=O)c2ccc(C)cc2)C1 (stereo unspecified)", "not met"),
    ("O=C1O[C@@H](c2ccccc2)[C@@H](c2ccccc2)N2[C@@H](c3ccccc3OCCO)[C@]3(C(=O)Nc4ccc(C#CC5=CCCCC5)cc43)[C@@H](C(=O)Nc3nc4ccccc4s3)[C@H]12", "not met"),
    ("C=CCOC(=O)[C@@H]1[C@H]2C(=O)O[C@H](c3ccccc3)[C@H](c3ccccc3)N2[C@H](c2ccc(OCCOC(=O)[C@@H]3C[C@@H]4C(=O)N[C@@H](CCCCN(C)C)C(=O)N4[C@@H]3c3ccc(O)cc3)cc2)[C@@]12C(=O)Nc1ccc(I)cc12", "met"),
    ("C=CCOC(=O)[C@H]1[C@@H]2C(=O)O[C@@H](c3ccccc3)[C@@H](c3ccccc3)N2[C@@H](c2ccc(OCCOC(=O)[C@H]3C[C@H]4C(=O)N[C@@H](CC(C)C)C(=O)N4[C@H]3c3ccc(O)cc3)cc2)[C@]12C(=O)Nc1ccc(I)cc12", "met"),
    ("C=CCOC(=O)[C@H]1[C@@H]2C(=O)O[C@@H](c3ccccc3)[C@@H](c3ccccc3)N2[C@@H](c2ccc(OCCOC(=O)[C@@H]3C[C@@H]4C(=O)N[C@@H](CCCCN(C)C)C(=O)N4[C@@H]3c3ccc(O)cc3)cc2)[C@]12C(=O)Nc1ccc(I)cc12", "not met"),
]

Turning to the following molecule.
Quick check: does CC(C)(C)OC(=O)CC[C@@]1(C(=O)NCC(O)CO)N=C(c2ccc(OCCCO)cc2)O[C@@H]1c1ccccc1N=[N+]=[N-] (stereo partly specified) have z-score greater than or equal to -1? met

###

# METHOD SUMMARY: PSAC antagonists in infected red cells, primary screen, cell-based, P. falciparum Indochina, OD700, 18 h (AID 1157)
# DETAILS: P. falciparum Indochina infected erythrocytes, osmotic lysis OD700, 18 h; higher = more signal, called active from +8 up or from −8 down
Everything with z-score lower than 0.3 is not fulfilled; everything else, including exactly 0.3, is fulfilled.

# COMPOUND, CLASS LABEL
measured = [
    ("CCCCN1CC=CC23O[C@@H]4/C=C\\CCC(C)OC(=O)C4[C@H]2C(=O)N(CCCCCO)[C@@H]3C1=O (some centres undefined)", "fulfilled"),
    ("CCOC(=O)C1=CCC(c2ccc(C)cc2)N(S(=O)(=O)c2ccc(C)cc2)C1 (centres undefined)", "fulfilled"),
    ("O=C1O[C@H](c2ccccc2)[C@H](c2ccccc2)N2[C@H]1[C@@H](C(=O)O)[C@]1(C(=O)Nc3ccc(C#CCCO)cc31)[C@H]2c1ccc(O)cc1", "fulfilled"),
    ("COC(=O)C(CC#Cc1ccc2c(c1)[C@]1(C(=O)N2)[C@H](c2ccc(O)cc2)N2[C@H](c3ccccc3)[C@H](c3ccccc3)OC(=O)[C@H]2[C@@H]1C(=O)Nc1nc2ccccc2s1)C(=O)OC", "not fulfilled"),
    ("CN(C)C(=O)[C@@]1(Cc2ccccc2)N=C(c2ccc(OCCCO)cc2)O[C@H]1c1ccccc1N=[N+]=[N-]", "fulfilled"),
]

Quick check: does COc1ccc(CCN2C(=O)[C@@]3(Cc4ccccc42)c2ccccc2C(=O)N(Cc2ccccc2C(F)(F)F)[C@H]3c2ccc(CO)cc2)cc1 have z-score greater than or equal to 0.3? not fulfilled

Quick check: does C=C(CCCC)C(=O)CC[C@@H](OC(=O)c1cccnc1)c1ccc(CO)o1 have z-score greater than or equal to 0.3? not fulfilled

Quick check: does CC1CC/C=C\[C@H]2OC34C=CCN(c5ccc(Cl)cc5)C(=O)[C@H]3N(CCO)C(=O)[C@]4(C)C2C(=O)O1 (some centres undefined) have z-score greater than or equal to 0.3? fulfilled

###

# METHOD SUMMARY: inhibitors of hydroxyurea-induced Chk1 phosphorylation, primary screen, imaging, HeLa, phospho-Chk1 antibody, percent positive cells (AID 1186)
# DETAILS: hydroxyurea-induced phospho-Chk1 immunofluorescence imaging, higher = more signal
Everything with z-score lower than 0.2 is label 0; everything else, including exactly 0.2, is label 1.

# COMPOUND, CLASS LABEL
records = [
    ("COc1ccc(C(=O)O[C@H]2CC[C@]3(C)C4=C(CCC3C2(C)C)[C@]2(C)CC[C@H]([C@H](C)CCCC(C)C)[C@@]2(C)CC4)cc1 (some centres not stated)", "label 0"),
    ("CC(C)C[C@@H]1NC(=O)[C@H]2C[C@@H](C(=O)NCCCCCCN)[C@@H](c3ccc(O)cc3)N2C1=O", "label 1"),
    ("C=CCNC(=O)[C@H]1[C@@H]2C(=O)O[C@@H](c3ccccc3)[C@@H](c3ccccc3)N2[C@@H](c2ccc(OCCO)cc2)[C@]12C(=O)Nc1ccc(C#CC3=CCCCC3)cc12", "label 0"),
    ("O=C1NC(=O)C2C1C=CC(C(O)C(c1ccccc1)c1ccccc1)N2Nc1ccc(Cl)cc1Cl (configuration not stated)", "label 1"),
    ("O=C1O[C@H](c2ccccc2)[C@H](c2ccccc2)N2[C@H]1[C@@H](C(=O)N1CCN(c3ncccn3)CC1)[C@]1(C(=O)Nc3ccc(C#CC4=CCCCC4)cc31)[C@H]2c1ccc(O)cc1", "label 0"),
]

Quick check: does COCCCNC(=O)[C@@]1(Cc2ccccc2N=[N+]=[N-])N=C(c2ccc(OCCCO)cc2)O[C@H]1c1ccccc1N=[N+]=[N-] have z-score greater than or equal to 0.2? label 0

Quick check: does CN1C(=O)C2C=CC(C(O)c3ccc(-c4ccccc4)s3)N(N(c3ccccc3)c3ccccc3)C2C1=O (configuration not stated) have z-score greater than or equal to 0.2? label 1

Quick check: does O=C1O[C@H](c2ccccc2)[C@H](c2ccccc2)N2[C@H]1[C@@H](C(=O)O)[C@]1(C(=O)Nc3ccc(C#CC4=CCCCC4)cc31)[C@H]2c1ccccc1OCCO have z-score greater than or equal to 0.2? label 0

Quick check: does C=C(CCCC)/C(=C/C[C@@H](OC(C)=O)c1ccccc1OCCO)c1cnc2ccccc2c1 have z-score greater than or equal to 0.2? label 1

Quick check: does COC(=O)[C@@]1(Cc2ccc(OC)cc2)[C@H]2c3cc(C(=O)N4CCCC4)n(Cc4ccc(OC)c(OC)c4)c3C[C@H]2CN1C(=O)c1ccccc1 have z-score greater than or equal to 0.2? label 1

Quick check: does COc1ccc(C(=O)Nc2ccc(CN3C(=O)[C@@]4(O[C@@H](CCO)[C@H]([Si](C)(C)c5ccc(OC)cc5)[C@H]4C)c4ccccc43)cc2)cc1 have z-score greater than or equal to 0.2? label 0

Values were extracted from PubChem BioAssay.
